Each recorded value in this set is attributed to PubChem BioAssay.

Experiment: probe aCHRDL2 binding to arrayed compounds – biochemical, biotinylated probe, 635/667 nm fluorescence, primary screen (AID 1100)
Details: small-molecule microarray, higher = more signal
Readout: composite z-score
Respond numerically, and do not add a unit to the figure.

Examples from the recorded data:
I would be grateful if you could share the reported composite z-score for "CC(C)N1C(=O)c2ccccc2[C@](C)(C(=O)NCCCN(C)C)[C@@H]1c1ccc(CO)cc1" . 0.665

I would be grateful if you could share the reported composite z-score for "CCCC[C@@H]1C[C@H]1[C@@H](NC(=O)c1ccco1)c1ccccc1" . 1.01

I would be grateful if you could share the reported composite z-score for "C=CCOC(=O)[C@H]1[C@@H]2C(=O)O[C@@H](c3ccccc3)[C@@H](c3ccccc3)N2[C@@H](c2ccc(OCCOC(=O)[C@@H]3C[C@@H]4C(=O)NCC(=O)N4[C@@H]3c3ccc(O)cc3)cc2)[C@]12C(=O)Nc1ccc(I)cc12" . 0.0065

I would be grateful if you could share the reported composite z-score for "COc1ccc([Si](C)(C)[C@H]2[C@H](CC(=O)N3CCC[C@H]3CO)O[C@@]3(C(=O)N(Cc4cccc(N5CCC5=O)c4)c4ccccc43)[C@@H]2C)cc1" . -0.222

Others:
I would be grateful if you could share the reported composite z-score for "CCOC(=O)C1=C[C@@H](C(C)(C)C)N(S(=O)(=O)c2ccc(C)cc2)[C@H]1c1ccc(Cl)c(Cl)c1" . 0.827

I would be grateful if you could share the reported composite z-score for CCCCCCCCCCC(O)C1C=CC2C(=O)N(c3ccccc3)C(=O)C2N1Nc1ccc([N+](=O)[O-])cc1 (configuration not stated) . 0.584

I would be grateful if you could share the reported composite z-score for "C=CCN1C(=O)[C@@]2(O[C@@H](CCO)[C@H]([Si](C)(C)c3ccc(OC)cc3)[C@H]2C)c2cc(N3C(=O)COc4ccccc43)ccc21" . -0.0458

----------
Biological target: Follistatin (Homo sapiens)
Test: FST protein binding to printed compounds – biochemical, small-molecule microarray, 635/667 nm fluorescence, primary screen (AID 1132)
Details: 635 nm fluorescence, higher = more signal
Readout: composite z-score
Respond numerically, and do not add a unit to the figure.

Examples from the recorded data:
I would be grateful if you could share the reported composite z-score for "Cc1ccc(F)cc1S(=O)(=O)N[C@@H]1CCN(Cc2ccc(C(F)(F)F)cc2)C1" . 0.277

I would be grateful if you could share the reported composite z-score for [N-]=[N+]=NCc1ccccc1C[C@]1(C(=O)NCC(O)CO)COC(c2ccc(OCCCO)cc2)=N1 (stereo partly drawn) . 0.831

I would be grateful if you could share the reported composite z-score for "[N-]=[N+]=NCc1ccccc1[C@@H]1OC(c2ccc(OCCCO)cc2)=N[C@]1(Cc1ccccc1)C(=O)O" . 0.592

Others:
I would be grateful if you could share the reported composite z-score for "Cc1ccc(S[C@]2(C(=O)NCCCN(C)C)CC(=O)N(Cc3ccccc3)[C@@H]2c2ccc(CO)cc2)cc1" . 0.0417

I would be grateful if you could share the reported composite z-score for "Cc1ccccc1/C=C/C=O" . -0.0561

I would be grateful if you could share the reported composite z-score for "COC(=O)[C@@]1(Cc2ccc(OC)cc2)[C@H]2c3cc(C(=O)N4CCCC4)n(CCN4CCOCC4)c3C[C@H]2CN1C(=O)c1ccccc1" . 0.193

I would be grateful if you could share the reported composite z-score for "CCOC(=O)C1=C[C@@H](C(C)(C)C)N(S(=O)(=O)c2ccc(C)cc2)[C@H]1c1ccc(Cl)c(Cl)c1" . 0.654

I would be grateful if you could share the reported composite z-score for "C=CC[C@@]1(C(N)=O)N=C(c2ccc(OCCCO)cc2)O[C@@H]1c1ccccc1N=[N+]=[N-]" . 1.34
